Molecular target: T1, CD123-Fc recombinant protein (human, UniProt P26951 19-305)
T1 construct: Soluble staining reagent; also called CD123-Fc protein; not shown: Fc part
T1 sequence (looked up): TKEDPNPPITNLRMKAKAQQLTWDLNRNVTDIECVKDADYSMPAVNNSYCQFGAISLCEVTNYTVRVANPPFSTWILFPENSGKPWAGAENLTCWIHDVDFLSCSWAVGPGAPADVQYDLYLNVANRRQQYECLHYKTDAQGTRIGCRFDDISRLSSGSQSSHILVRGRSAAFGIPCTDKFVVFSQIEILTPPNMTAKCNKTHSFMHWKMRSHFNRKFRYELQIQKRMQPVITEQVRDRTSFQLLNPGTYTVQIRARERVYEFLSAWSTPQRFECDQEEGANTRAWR
Assay: FACS staining of CAR-T cells with CD123-Fc recombinant protein (FIG. 28)
MEASURED_PROPERTY: binding result

INSERT INTO assay_data (binder, measured_property, obs_value) VALUES
  ('anti-CD123 scFv-C21 (scFv, also called C21 scFv) scFv: QSVLTQPPSASGTPGQRVTISCSGSSSNVGGNPVYWYRQVPTAAPKLLVYGHNQRPPRDPDRFSGSKSGTSASLAISGLRSEDEADYYCAAWDDSLSGWVFGGGTELTVLGGGGSGGGGSGGGGSEVQLVESGGGLVQPGRSLRLSCAASGFTFDDYAMHWVRQAPGKGLEWVSGISWNSGSIGYADSVKGRFTISRDNAKNSLYLQMNSLRAEDTALYYCAKGRYVDIVATINDAFDIWGQGTMVTVSS', 'binding result', 'binds'),
  ('anti-CD123 scFv-C5 (scFv, also called C5 scFv; C5 CAR) scFv: NFMLTQPHSVSESPGKTVTLSCTRSSGSIAGSYVQWYQQRPGSSPTTVIFQDNQRPSGVPDRFSGSIDKSSNSASLTISGLKTEDEADYYCQSYDSNNQVFGGGTKLTVLGGGGSGGGGSGGGGSEVHLVESGGGVVRPGGSLRLSCAASGFTFGDYGMSWVRQAPGKGLEWVSGINWNGGRTGYADSVKGRFTISRDNAKNSLYLQMNSLRAEDTALYYCARARGSGSYFGYMDVWGKGTTVTVSS', 'binding result', 'binds');
